All values here come from PubChem BioAssay AID1159580.

Experiment: chemical genetic growth profiling, strain panel (AID 1159580);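 further: tested at 20 µM; growth read once vehicle control cultures reached saturation at 30 °C; 1 = growth at the plate median or of vehicle wells; lower values mean less growth of the strain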
Details: S. cerevisiae deletion strains, growth OD, locus YKL190W, strain CNB1, active compounds read low
Out of some 5,500 compounds screened, about 2,000 (36%) were called active. About 18% were inconclusive and are not listed. The list shows a part of the results.
readout-name: normalized growth

Prompt: Annotate the compound `Cc1cc(Br)c(OCC(=O)NN)c2c1CCC2` with its measured normalized growth.
Completion: 0.989 (inactive)

----------
Reported normalized growth values for a set of compounds
Experiment: chemical genetic growth profiling, strain panel (AID 1159580)
Conditions: S. cerevisiae deletion strains, growth OD, locus YFR019W, strain FAB1, active compounds read low
Screen size: about 5,500 compounds; about 2,000 (36%) were called active. Roughly 18% stayed inconclusive and do not appear here. This is one part of the list.
Lab note: jot down the number only; don't add units.

Below are worked cases with known answers.
Cc1ccc2c(c1)CCCN2CC(=O)N(c1ccccc1)C1CCCCC1; 0.961
O=C1Nc2ccccc2/C1=N/N=C\c1cc(Br)cc(Br)c1O; 0.396
Clc1ccccc1N/N=C\Cc1nnnn1-c1ccccc1; 0.831
N/C(CSc1ccc(Cl)cc1)=N/OC(=O)c1ccc(C(F)(F)F)cc1; 0.766
Cc1nc(-c2ccc(C(F)(F)F)cn2)[nH]c(=O)c1Cl; 0.908
N/C(CSc1ncccc1C(F)(F)F)=N/OC(=O)Nc1cccc(Cl)c1; 0.946
C#Cc1cccc(N=Cc2cc(Cl)cc(Br)c2O)c1; 0.107
Cc1ccc(C(O)(c2ccccc2)c2ccccc2)c2ccccc12; 0.952

Prompt: Return normalized growth for the following compound: `Fc1ccc(N/N=C\Cc2nnnn2-c2ccccc2)c(F)c1`
Completion: 0.414

Prompt: For the compound `CC(C)CSc1nnc(CSCc2nc(-c3ccc(Cl)cc3)cs2)n1C` , report normalized growth.
Completion: 0.946

Prompt: Using known records, supply normalized growth for `Cc1cc(C(=O)O/N=C(/N)CSc2ncccc2C(F)(F)F)no1`
Completion: 1

----------
Assay: chemical genetic growth profiling, strain panel (AID 1159580)
Settings: S. cerevisiae deletion strains, growth OD, locus YDR334W, strain swr1
In all, about 5,500 compounds went through this assay and about 2,000 (36%) were called active. Roughly 18% stayed inconclusive and do not appear here. No stated cut-off is given here; in the data, active means normalized growth mostly below about 0.91 (no sharp cut-off); inconclusive means no clear call, values can overlap the other calls; inactive means mostly above about 0.92. This is one part of the list.
Respond using exactly one of the listed classes: true (1) for active, false (0) for inactive

ClC(Cl)=C(c1ccc(Cl)cc1)c1ccc(Cl)cc1; false (0)
CCCCC1C(=O)N(c2ccccc2)N(c2ccccc2)C1=O; false (0)
O=C(O)c1cc(=O)c2ccccc2o1; false (0)
Nc1nnc(-c2cccc(Cl)c2Cl)c(N)n1; false (0)
NCCc1ccc(O)cc1; false (0)
O=c1cc(-c2ccc(O)cc2)oc2ccc(O)cc12; false (0)
O=C1CCc2cc(OCCCCc3nnnn3C3CCCCC3)ccc2N1; false (0)
CCCCCCCCCCCCCCCC[n+]1ccccc1; true (1)
O=c1c2ccccc2oc2ccccc12; false (0)
C=C1C(N)CC2CC1C2(C)C (centres undefined); false (0)

Prompt: What did the test return for CN1CCOC(c2ccccc2)c2ccccc2C1 (centres undefined) ?
Completion: false (0)

Prompt: Please indicate how the test categorized `CCCCCCc1ccc(O)cc1O` .
Completion: false (0)

Prompt: Lab log entry: CN1CCN2c3ccccc3Cc3ccccc3C2C1 (centres undefined) — outcome as called in the assay?
Completion: false (0)

Prompt: Assay outcome for `CC1=NCCc2c1[nH]c1cc(O)ccc21` : what was it?
Completion: false (0)

----------
Experiment: chemical genetic growth profiling, strain panel (AID 1159580);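 further: tested at 20 µM; growth read once vehicle control cultures reached saturation at 30 °C; 1 = growth at the plate median or of vehicle wells; lower values mean less growth of the strain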
Details: S. cerevisiae deletion strains, growth OD, locus YJL187C, strain SWE1 (second series), active compounds read low
In all, about 5,500 compounds went through this assay and about 2,000 (36%) were called active. Another 18% or so got no clear call; they are omitted. The list shows a part of the results.
Listed here are compounds together with their documented normalized growth.

Guide cases for normalized growth, answers given:
CC(=O)O[C@H]1C[C@@H](O)C(C)(C)C2C[C@@H](OC(C)=O)[C@]3(C)C(CC[C@@]4(C)[C@H](c5ccoc5)OC(=O)C5OC543)[C@]21C (some centres undefined); 0.999 (inactive)
COc1cccc(-c2cc(=O)c3ccc(OC)cc3o2)c1; 0.942 (inactive)
CC(=O)O[C@@H]1CC2C(C)(C)CCC(=O)[C@]2(C)C2CC[C@@]3(C)[C@H](c4ccoc4)OC(=O)C4OC43[C@@]21C (some centres undefined); 0.977 (inactive)

Consider now this further compound.
Prompt: Give the measured normalized growth for CC1(C)O[C@@H]2CC3C4C[C@H](F)C5=CC(=O)C=CC5(C)C4C(O)CC3(C)[C@]2(C(=O)CO)O1 (some centres undefined)
Completion: 1.02 (inactive)

----------
Assay: chemical genetic growth profiling, strain panel (AID 1159580);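 further: tested at 20 µM; growth read once vehicle control cultures reached saturation at 30 °C; 1 = growth at the plate median or of vehicle wells; lower values mean less growth of the strain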
Conditions: S. cerevisiae deletion strains, growth OD, locus YBR229C, strain ROT2, active compounds read low
In all, about 5,500 compounds went through this assay and about 2,000 (36%) were called active. Another 18% or so got no clear call; they are omitted. Some of the results follow.
normalized growth reference
Answer with a number only.

Use the examples below as a reference point.
Nc1ccc(C(=O)O)c(O)c1 (tested in a mixture with another compound); 0.988
C=CCCCCCCCCCCCC(O)CC(O)CO (stereo not given) (tested in a mixture with another compound); 0.531
C=CCCCCCCCCCCCC(O)CC(O)CO (stereo not given); 0.974
O=c1c(-c2ccc(O)cc2)coc2cc(O)cc(O)c12; 1.02
CC(C)c1ccc2c(c1O)CC[C@H]1C3=C(CC[C@]21C)C(=O)OC3; 0.97
O=C(O)/C=C(\CC(=O)O)C(=O)O; 0.993
COc1ccc(-c2cc(=O)c3c(OC)cccc3o2)cc1; 1.04
Nc1ccc(C(=O)Oc2ccccc2)c(O)c1; 0.948

Prompt: Supply measured normalized growth of `Cc1coc2ccccc2c1=O` in your reply.
Completion: 1.01

Prompt: Provide normalized growth value for the following compound: `CCn1cc(C(=O)O)c(=O)c2cc(F)c(N3CCNCC3)cc21`
Completion: 1.01

Prompt: Please report normalized growth for the following compound: COC(=O)C[C@H]1C(C)(C)C(=O)[C@@H]2CC3=C4CC(OC)O[C@@H](c5ccoc5)[C@]4(C)CCC3[C@@]1(C)C2=O (stereo not given in full)
Completion: 0.994

Prompt: Answer with the recorded normalized growth of `O=C(O)c1coc2ccccc2c1=O` only.
Completion: 0.99

Prompt: Find the measured normalized growth of `Clc1cccc(-c2csc(Nc3cccnc3)n2)c1` and report it.
Completion: 0.998

Prompt: Recall and state the measured normalized growth for `COc1ccc2c(=O)cc(-c3ccccc3OC)oc2c1` .
Completion: 0.97

Prompt: // Input: `CNCCC=C1c2ccccc2CCc2ccccc21` . Output its normalized growth only.
Completion: 1.01

Prompt: Look up and state reported normalized growth for `N#Cc1ccc([N+](=O)[O-])s1`
Completion: 0.446

Prompt: Complete the entry with normalized growth for `COc1ccc(-c2cc(=O)c3cc(OC)ccc3o2)cc1`
Completion: 0.999

Prompt: Respond only with normalized growth recorded for `COc1ccc(-c2coc3cc(OC)cc(O)c3c2=O)cc1`
Completion: 0.98

Prompt: Supply recorded normalized growth for `COc1ccc(-c2cc(=O)c3ccccc3o2)cc1OC` here.
Completion: 1.04

Prompt: Give me measured normalized growth, please, for this compound: `Cc1c(C)c(C)c(CO)c(C)c1C`
Completion: 1.01

Prompt: For the compound `O=c1c(-c2ccccc2)coc2cc(O)cc(O)c12` , give its reported normalized growth.
Completion: 0.853

Prompt: Annotate the compound `O=c1oc2ccccc2c(O)c1Cc1c(O)c2ccccc2oc1=O` with its measured normalized growth.
Completion: 0.998

Prompt: Using known records, supply normalized growth for `N[C@@H]1CONC1=O`
Completion: 1.01

Prompt: Name the recorded normalized growth of the item `CC(=O)Nc1ccc(OC(=O)c2ccccc2O)cc1` in your answer.
Completion: 0.98

Prompt: Please report normalized growth for the following compound: `COc1ccc(C(=O)/C=C/c2ccccc2)cc1`
Completion: 0.991

----------
Experiment: chemical genetic growth profiling, strain panel (AID 1159580);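 further: tested at 20 µM; growth read once vehicle control cultures reached saturation at 30 °C; 1 = growth at the plate median or of vehicle wells; lower values mean less growth of the strain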
Conditions: S. cerevisiae deletion strains, growth OD, locus YMR129W
In all, about 5,500 compounds went through this assay and about 2,000 (36%) were called active. Not shown: some 18% with an inconclusive outcome. Rule as the data show it: active = normalized growth mostly below about 0.91 (no sharp cut-off); inconclusive = no clear call, values can overlap the other calls; inactive = mostly above about 0.92. The list shows a part of the results.
Output constraint: value belongs to active, inactive

O=c1cc(-c2ccc(O)cc2)oc2ccc(O)cc12; inactive
O=c1c2ccccc2[se]n1-c1ccccc1; active
CC(C)=CCc1c2c(c(O)c3c(=O)c(O)c(-c4ccccc4)oc13)C=CC(C)(C)O2; active

Prompt: Any idea what this test logged for `O=c1cc(-c2ccc(O)c(O)c2)oc2ccccc12` ?
Completion: inactive

Prompt: # fetch the recorded call for `CCCN1C[C@H](CSC)C[C@@H]2c3cccc4[nH]cc(c34)C[C@H]21` here
Completion: inactive

Prompt: Record lookup: outcome of this test for CN(C)C(=O)Oc1cc(OC(=O)N(C)C)cc(C(O)CNC(C)(C)C)c1 (stereo unspecified) ?
Completion: inactive

Prompt: I would be grateful if you could indicate the recorded call for `COc1ccc(C(=O)/C=C/c2ccccc2)cc1` .
Completion: inactive

Prompt: Which outcome was assigned to `CC(=O)Oc1c(-c2ccccc2)oc2c(CC=C(C)C)c3c(c(OC(C)=O)c2c1=O)C=CC(C)(C)O3` in this test?
Completion: active

Prompt: Called result for `O=c1cc(-c2cccc(O)c2)oc2ccc(O)cc12`
Completion: inactive

Prompt: # lookup: test call for `N[C@H](CO)Cc1ccccc1`
Completion: inactive

Prompt: Could you please tell me the result logged for `CC1=CCc2c(cc3oc(C)cc(=O)c3c2O)OC1` in this assay?
Completion: inactive
